List of inhibition at 1 µM values.
target: α1a (h) (Homo sapiens (Human)); assay: α1A adrenergic antagonist effect assay; assay type: cell-based; conditions: α1A(h) antagonist effect, 1 μM; read-out: % inhibition of control values (1 μM)
Sequence (P35348 whole entry): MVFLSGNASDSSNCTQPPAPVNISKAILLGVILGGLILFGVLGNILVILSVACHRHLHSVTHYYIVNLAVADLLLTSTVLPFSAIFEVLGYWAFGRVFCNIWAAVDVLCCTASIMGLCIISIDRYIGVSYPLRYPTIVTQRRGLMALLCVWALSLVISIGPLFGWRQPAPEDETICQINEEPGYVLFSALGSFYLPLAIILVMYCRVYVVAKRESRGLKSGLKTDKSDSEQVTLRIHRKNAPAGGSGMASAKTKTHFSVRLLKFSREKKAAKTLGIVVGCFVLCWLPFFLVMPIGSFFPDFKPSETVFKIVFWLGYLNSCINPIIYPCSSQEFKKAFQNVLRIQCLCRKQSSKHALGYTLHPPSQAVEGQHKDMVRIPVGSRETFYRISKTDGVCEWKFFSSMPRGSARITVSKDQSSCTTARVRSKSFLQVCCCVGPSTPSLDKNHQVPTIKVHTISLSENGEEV
Output spec: scalar in %, unitless text.

Example entries and their recorded answers appear below.
chem.smiles: Cc1cc(-c2ccc3c(c2)CN(CCC(=O)N2CCc4ccccc4C2)CCC3(C)C)cc(C)n1
target.under.test: α1a (h) (Homo sapiens (Human))
inhibition at 1 µM / %: 57

chem.smiles: CC1(C)CCN(C(=O)C2CCCC2)Cc2cc(N3CCN(C4CCCC4)CC3)ccc21
target.under.test: α1a (h) (Homo sapiens (Human))
inhibition at 1 µM / %: 31

chem.smiles: CC1(C)CCN(C(=O)c2cccc3c2OCO3)Cc2cc(N3CCC(N4CCOCC4)CC3)ccc21
target.under.test: α1a (h) (Homo sapiens (Human))
inhibition at 1 µM / %: 19

chem.smiles: CC1(C)CCN(C(=O)C2CCCC2)Cc2cc(N3CCC(N4CCOCC4)CC3)ccc21
target.under.test: α1a (h) (Homo sapiens (Human))
inhibition at 1 µM / %: 10

Name the recorded inhibition at 1 µM for CC1(C)CN(S(=O)(=O)c2cccc(Cl)c2)Cc2cc(N3CCN(C4CCCC4)CC3)ccc21 . 9
